Test: Luminescence Cell-Based Dose Response to Identify Activators of 5'UTR Stem-Loop Driven Prion Protein mRNA Translation in H4-C Neuroglioblastoma Cells. [Related pubchem assays: 1829 (Project Summary), 1814 (Primary HTS)]
Format: functional
Calls of active or inactive are those of the source.

compound | EC50
CCN1C(=S)SC(=O)C1=C1C=C(C)N(Cc2ccco2)C(C)=C1 | 313 nM (active)
Cc1ccc(NC(=O)NCC2CC2(Cl)Cl)cc1 (centres undefined) | > 12000 nM (not active)
Cc1ccc(OCc2nc(-c3ccccc3)no2)c(C)c1 | 1030 nM (active)
Nc1nnc(CC(=O)N/N=C/c2cccc(OCCOc3ccccc3)c2)s1 | 1250 nM (active)

----------
// reported AC50 for each item listed
Experiment: inhibitors of HIV Env-driven cell fusion, dose response, cherry-pick (AID 652057)
Format: functional, cell-based
The source made the active and inactive calls.
quantity.measured: AC50

compound | reported.result
CCN(CC)c1nc(Nc2ccccc2)nc(Oc2ccc(O)nn2)n1 | 6.13 µM (active)
C[C@H](CO)N1C[C@H](C)[C@H](CN(C)S(=O)(=O)c2ccc(F)cc2)Oc2ccc(NC(=O)Nc3cccc4ccccc34)cc2CC1=O | < 0.26 µM (active)
CC(NC(=O)CN(C)CC(=O)Nc1ccc(Cl)c(C(F)(F)F)c1)c1ccccc1 (stereo unspecified) | 4.06 µM (active)
Cc1cccc(N2CCN(C(=O)CCCSc3nc4ccccc4[nH]3)CC2)c1C | 46.1 µM (active)
C=C1CCN([C@@H](CC(C)C)C(=O)Nc2ccc(OC)cc2)S(=O)(=O)c2ccccc21 | 2.12 µM (active)
COc1ccc(-c2cc3nc(C)n(N)c(=O)c3s2)cc1 | 0.95 µM (active)

----------
// reported EC50 for each item listed
Target: RNA-binding protein pos-1 (Caenorhabditis elegans, UniProt G5EF15)
Sequence (G5EF15 whole entry, the tested form may be a part): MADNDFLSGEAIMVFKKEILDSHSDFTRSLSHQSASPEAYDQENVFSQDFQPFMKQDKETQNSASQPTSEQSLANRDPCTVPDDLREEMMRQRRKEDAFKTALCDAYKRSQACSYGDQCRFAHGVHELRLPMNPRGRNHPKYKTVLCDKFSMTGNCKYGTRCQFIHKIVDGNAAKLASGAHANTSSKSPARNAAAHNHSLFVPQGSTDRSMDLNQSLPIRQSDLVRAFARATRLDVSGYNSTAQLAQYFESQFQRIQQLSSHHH
Assay: inhibitors of POS-1/mex-3 RNA binding, dose response, biochemical, fluorescence polarization (AID 1964);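 also: purified POS-1 fused to maltose binding protein made in E. coli; potency of compounds blocking POS-1 binding to fluorescent RNA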
The source made the active and inactive calls.

compound | EC50
CC1(OC(=O)c2cnc3ccccc3n2)C(=O)C=C2C=C(c3ccc(C#N)cc3)OC=C2C1=O (stereo not given) | 39.8 µM (active)
COC(=O)CCCC1=CC2=CC(=O)C(C)(OC(=O)c3ccc(Cl)nc3)C(=O)C2=CO1 (stereo not given) | > 150 µM (not active)
Cc1cc(C)c2c(c1)NC(c1cc3c(cc1Br)OCO3)C1CC=CC21 (stereo not given) | > 300 µM (not active)
COc1ccc(C(=O)/N=c2\c(C#N)cc3c(=O)n4cccc(C)c4nc3n2Cc2ccco2)cc1 | 220 µM (active)
CCN(CC)C(=O)CNc1ccc(C(F)(F)F)cc1[N+](=O)[O-] | 40 µM (inconclusive)
O=C1NC(=O)N(CCc2ccccc2)C(=O)/C1=C/NNC(=O)c1ccccc1 | 40.2 µM (active)
CCCCC1(C)OC(=O)C(=Cc2ccc(N(CC)CC)cc2)C(=O)O1 (stereo not given) | > 300 µM (not active)
CC(=O)c1ccc2c(c1)C1C=CCC1C(c1ccncc1)N2 (stereo not given) | > 300 µM (not active)
Cc1cnc(C(=O)NNC(=O)c2ccc(Br)cc2)cn1 | > 300 µM (not active)
CC1(OC(=O)c2ccco2)C(=O)C=C2C=C(c3ccsc3)OC=C2C1=O (stereo not given) | > 300 µM (not active)

----------
Assay: NIH-3T3 fibroblast cytotoxicity, dose response, cytotoxicity control, cell-based, fluorescence, Alamar Blue, secondary assay (AID 2327);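 also: NIH-3T3 mouse fibroblasts cultured with fluconazole at 8 µg/mL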
Type: functional
Calls of active or inactive are those of the source.
// reported EC50 for each item listed
quantity.measured: EC50

smiles.data | quantity.measured | reported.result
Cc1ccc(NC(=O)c2noc(C(C)C)c2[N+](=O)[O-])cc1 | EC50 | > 150 µM (inconclusive)
O=C(Nc1ccncc1)c1ccc(Br)cc1 | EC50 | > 150 µM (inactive)
O=C(N/N=C/c1ccc(O)c(O)c1O)/C(=C/c1ccc([N+](=O)[O-])cc1)NC(=O)c1ccccc1 | EC50 | > 160 µM (inactive)
Cc1cc(OCC(=O)NNC(=S)NC(=O)c2cccs2)ccc1Cl | EC50 | 74.8 µM (active)
O=c1c2ccccc2nc(/C=C/c2ccc([N+](=O)[O-])o2)n1-c1ccc(O)cc1 | EC50 | 3.91 µM (inconclusive)

----------
Biological target: Streptokinase A (Streptococcus pyogenes serotype M1, UniProt P10520)
Sequence (P10520 whole entry): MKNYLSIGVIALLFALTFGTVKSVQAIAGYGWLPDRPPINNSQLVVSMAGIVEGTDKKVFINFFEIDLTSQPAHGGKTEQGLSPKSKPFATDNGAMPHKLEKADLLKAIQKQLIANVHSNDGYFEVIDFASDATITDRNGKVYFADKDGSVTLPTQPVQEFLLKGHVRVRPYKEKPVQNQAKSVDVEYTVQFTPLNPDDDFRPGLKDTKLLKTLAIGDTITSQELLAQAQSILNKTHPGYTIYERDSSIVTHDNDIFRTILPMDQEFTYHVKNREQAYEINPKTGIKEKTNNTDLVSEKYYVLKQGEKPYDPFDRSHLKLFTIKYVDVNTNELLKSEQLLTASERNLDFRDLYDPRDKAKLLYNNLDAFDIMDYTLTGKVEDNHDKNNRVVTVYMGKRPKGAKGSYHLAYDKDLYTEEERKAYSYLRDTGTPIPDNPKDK
Assay: S. pyogenes streptokinase expression inhibitors, potency, dose response, plasminogen activation absorbance, OD405 (AID 1914);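 also: secreted streptokinase activity via plasminogen activation per viability signal from cell pellet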
Type: functional, Streptococcus pyogenes M1 GAS
Activity calls are given as the source filed them.

compound | experimental.system | EC50
Cc1cc(C)c2c(c1)NC(c1cc3c(cc1Br)OCO3)C1CC=CC21 (stereo not drawn) | Streptokinase A (Streptococcus pyogenes serotype M1, UniProt P10520) | > 150 µM (not active)
NC(=S)N/N=C\c1c(OCc2ccccc2Cl)ccc2ccccc12 | Streptokinase A (Streptococcus pyogenes serotype M1, UniProt P10520) | > 150 µM (not active)
CN1C(=O)NC(c2ccccc2)(C(F)(F)F)S/C1=C(/C#N)c1nnc(N2CCOCC2)n1-c1ccccc1 (stereo not drawn) | Streptokinase A (Streptococcus pyogenes serotype M1, UniProt P10520) | > 150 µM (not active)
CN(C(=S)NC(=O)c1ccccc1)C1CCCCC1 | Streptokinase A (Streptococcus pyogenes serotype M1, UniProt P10520) | > 150 µM (not active)
O=C(CCCN1C(=O)/C(=C\c2cccs2)SC1=S)Nc1cc([N+](=O)[O-])ccc1O | Streptokinase A (Streptococcus pyogenes serotype M1, UniProt P10520) | 25.3 µM (active)
O=C(Nc1cccc(-c2csc(Nc3ccc(Cl)cc3)n2)c1)c1ccccc1 | Streptokinase A (Streptococcus pyogenes serotype M1, UniProt P10520) | > 150 µM (not active)
Sc1nnc(-c2cccs2)n1/N=C/c1cn(-c2ccccc2)nc1-c1ccccc1 | Streptokinase A (Streptococcus pyogenes serotype M1, UniProt P10520) | > 150 µM (not active)
O=C(Nc1nc(-c2ccccn2)cs1)C1CC1 | Streptokinase A (Streptococcus pyogenes serotype M1, UniProt P10520) | > 150 µM (not active)
Cc1cccc(CSc2ncnc3c2cnn3Cc2ccccc2)c1 | Streptokinase A (Streptococcus pyogenes serotype M1, UniProt P10520) | > 150 µM (not active)
FC(F)Sc1ccc(NC(=S)NC(c2ccccc2)c2ccccc2)cc1 | Streptokinase A (Streptococcus pyogenes serotype M1, UniProt P10520) | > 150 µM (not active)
O=C(c1ccccc1Cl)N1CCN(S(=O)(=O)c2cccs2)CC1 | Streptokinase A (Streptococcus pyogenes serotype M1, UniProt P10520) | > 150 µM (not active)
O=Nc1c(-c2c(O)[nH]c3cc(Br)ccc23)[nH]c2ccccc12 | Streptokinase A (Streptococcus pyogenes serotype M1, UniProt P10520) | 44.9 µM (active)
O=C(NCC1CCCO1)c1cc2c3ccccc3nc-2c(-c2cccc(Cl)c2)[nH]1 (stereo not drawn) | Streptokinase A (Streptococcus pyogenes serotype M1, UniProt P10520) | > 150 µM (not active)
Cc1cnn(-c2nc(-c3ccccc3)cc(-c3ccccc3)n2)c1 | Streptokinase A (Streptococcus pyogenes serotype M1, UniProt P10520) | 27.2 µM (active)
Cn1nnc(-c2ccc(OCc3ccccc3F)cc2)n1 | Streptokinase A (Streptococcus pyogenes serotype M1, UniProt P10520) | > 150 µM (not active)
O=S(=O)(Nc1cccc2c1CCCC2)c1ccc(Cl)cc1 | Streptokinase A (Streptococcus pyogenes serotype M1, UniProt P10520) | 97.8 µM (inconclusive)
CC1=NN(c2nc(-c3ccccc3)cs2)C(=O)C1 | Streptokinase A (Streptococcus pyogenes serotype M1, UniProt P10520) | 10 µM (active)
O=C1NC(=O)N(CCc2ccccc2)C(=O)/C1=C(O)/C=C/c1c[nH]c2ccccc12 | Streptokinase A (Streptococcus pyogenes serotype M1, UniProt P10520) | > 150 µM (not active)
COc1ccc(Oc2nc(C(F)(F)F)nc3ccccc23)cc1 | Streptokinase A (Streptococcus pyogenes serotype M1, UniProt P10520) | 46.8 µM (active)
CCCC1=NN2C(=N)/C(=C\c3cc(C)n(-c4cc(C)cc(C)c4)c3C)C(=O)N=C2S1 | Streptokinase A (Streptococcus pyogenes serotype M1, UniProt P10520) | 5.85 µM (active)
O=C(Nc1cccc(-c2nc3ccccc3[nH]2)c1)c1ccc(C(=O)Nc2cccc(-c3nc4ccccc4[nH]3)c2)cc1 | Streptokinase A (Streptococcus pyogenes serotype M1, UniProt P10520) | > 150 µM (not active)
CN1CC(c2ccc(Cl)c(Cl)c2)[C@@]2(COc3ccccc3C2=O)[C@@]12C(=O)Nc1ccccc12 (stereo partly drawn) | Streptokinase A (Streptococcus pyogenes serotype M1, UniProt P10520) | 1.55 µM (active)
C[n+]1c(-c2ccccc2)c2cc(N)ccc2c2ccc(N)cc21 | Streptokinase A (Streptococcus pyogenes serotype M1, UniProt P10520) | > 150 µM (not active)
